test system: U2OS; assay: Incucyte cell viability with U2OS; type: toxicity, cell-based; details: human, 6 h, 10 µM, compound concentration 10 uM, replicate number 2, timepoint 6 hours; further: filed as whole numbers so only -1 and 0 and 1 occur
Quantity name: Growth Rate
Note: the reply should be a number with no unit written.

Past entries and their recorded results:
[[record]]
compound = "COc1ccc(Br)cc1S(=O)(=O)NC(=O)/C=C/c1ccccc1Cc1ccc2ccccc2c1"
system_name = "U2OS"
quantity_name = "Growth Rate"
test_value = 0

[[record]]
compound = "Cc1c(F)cccc1NC(=O)Nc1ccc(Cl)c(S(=O)(=O)[C@H]2CCCNC2)c1O"
system_name = "U2OS"
quantity_name = "Growth Rate"
test_value = 1

[[record]]
compound = "CC1=C2C[C@H]3[C@@H](CC=C4C[C@@H](O)CC[C@@]43C)[C@@H]2CC[C@]12O[C@@H]1C[C@H](C)CN[C@H]1[C@H]2C"
system_name = "U2OS"
quantity_name = "Growth Rate"
test_value = 0


Growth Rate value, target or system U2OS, for CC(C)C[C@H](NC(=O)N1CCCCCC1)C(=O)N[C@H](Cc1cn(C)c2ccccc12)C(=O)N[C@H](Cc1ccccn1)C(=O)O : 1

Assay U2OS, sample C[C@H]1C[C@H]2[C@@H]3CCC4=CC(=O)C=C[C@]4(C)[C@@]3(Cl)[C@@H](O)C[C@]2(C)[C@@]1(O)C(=O)CO , Growth Rate read: 0

Hey, U2OS data for CN(CCOc1ccc(CC2SC(=O)NC2=O)cc1)c1ccccn1 (stereo not drawn) : Growth Rate came out at 1

For C[C@H](NC(=O)Nc1cc2[nH]ncc2c(CO)n1)c1ccccn1 on U2OS, measured Growth Rate was 1

Noted Growth Rate for CC(C)c1cc(Nc2nc(N3CCC[C@H](N)C3)ncc2C(N)=O)cc(C(C)C)n1 , tested on U2OS: 1
